- assay_overview: NCI Yeast Anticancer Drug Screen. Data for the mlh1 rad18 strain (AID 175)
- condition_parameters: S. cerevisiae mlh1 rad18 strain growth inhibition; at 50.0 µM; stronger effect = higher value
- Procedure: Growth inhibition of yeast strains with defined genetic alterations is measured as a screen for potential anti-cancer activity. Selected strains with alterations in DNA damage repair or cell cycle control were exposed to compounds and growth inhibition was measured relative to vehicle treated controls. The strain used in this assay is mlh1 rad18
This is part of a sample that, as a whole, favours compounds with a hit. Of some 79,000 tested, about 15% had one in any assay.
property_measured: growth inhibition (%)
Numbers only here, please. The scale is %.

COc1ccc(C)cc1NC(=S)C#N: -44.9
COc1ccc(-c2cc(=O)c3c(O)cccc3o2)cc1: -1.35
COc1ccc(NCc2ccc(C)cc2)cc1: 3.45
CC1(C)Oc2ccc3c(=O)cc(-c4ccc(F)cc4)oc3c2C1C(=O)O (stereo unspecified): -28.8
COc1ccc(C2NC(=O)c3ccccc3N2)c(OC)c1OC (stereo unspecified): -16.4

Next compound, growth inhibition to be filled in.
Query: Quote growth inhibition reported for `COc1cc(-c2cc(=O)c3c(O)cc(C)cc3o2)cc(OC)c1OC` please.
Response: -17.8
